# targetEntity: Corticotropin-releasing factor receptor 1 (Homo sapiens)
# Sequence (whole entry): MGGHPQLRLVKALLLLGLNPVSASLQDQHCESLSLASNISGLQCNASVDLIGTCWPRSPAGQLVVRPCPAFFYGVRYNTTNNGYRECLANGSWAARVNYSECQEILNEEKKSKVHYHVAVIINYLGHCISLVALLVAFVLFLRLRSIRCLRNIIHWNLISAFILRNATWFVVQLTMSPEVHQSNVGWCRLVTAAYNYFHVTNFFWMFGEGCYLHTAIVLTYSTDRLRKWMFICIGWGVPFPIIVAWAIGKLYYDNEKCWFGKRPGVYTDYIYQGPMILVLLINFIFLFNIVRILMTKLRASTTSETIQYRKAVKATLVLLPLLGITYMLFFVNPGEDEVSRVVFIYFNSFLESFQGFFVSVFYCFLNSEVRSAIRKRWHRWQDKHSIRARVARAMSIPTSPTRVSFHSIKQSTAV
# assayNotes: Antagonist activity at human CRF1 receptor expressed in human IMR-32 cells assessed as inhibition of CRF-stimulated cAMP production
# Assay type: functional, cell-based
Activity calls are given as the source filed them. How the calls were made is not given here.
measuredMetric: Activity

# molecularString, targetEntity, valueMeasured
records = [
    ("CCN(Cc1c(C(F)(F)F)nc2n(-c3c(C)cc(C)cc3C)c(Cl)cn12)CC1CC1", "Corticotropin-releasing factor receptor 1 (Homo sapiens)", "Active"),
    ("Cc1cc(C)c(-n2c(Cl)cn3c(CN(CCC4CC4)CCC(F)(F)F)c(C(F)(F)F)nc23)c(C)c1", "Corticotropin-releasing factor receptor 1 (Homo sapiens)", "Active"),
    ("CCCN(Cc1c(C(F)(F)F)nc2n(-c3c(C)cc(C)cc3Cl)c(Cl)cn12)CC1CC1", "Corticotropin-releasing factor receptor 1 (Homo sapiens)", "Active"),
]

----------
Exercise: state measured Ki for each of the molecules provided.
Number in nM, nothing else.

IN: Lab note: need Ki with Corticotropin-releasing factor receptor 1 (Homo sapiens, UniProt P34998) for entry CCN(Cc1ccccc1)Cc1c(C(F)(F)F)nc2n(-c3c(C)cc(C)cc3C)c(Cl)cn12 , please look it up.
OUT: 350

IN: Lab note: need Ki with Corticotropin-releasing factor receptor 1 (Homo sapiens, UniProt P34998) for entry Cc1cc(C)c(-n2c(Cl)cn3c(CN(CCC(F)(F)F)Cc4cccc(F)c4)c(C(F)(F)F)nc23)c(C)c1 , please look it up.
OUT: 49

IN: Lab note: need Ki with Corticotropin-releasing factor receptor 1 (Homo sapiens, UniProt P34998) for entry Cc1cc(C)c(-n2c(Cl)cn3c(CN(C)Cc4ccco4)c(C(F)(F)F)nc23)c(C)c1 , please look it up.
OUT: 180

IN: Lab note: need Ki with Corticotropin-releasing factor receptor 1 (Homo sapiens, UniProt P34998) for entry Cc1cc(C)c(-n2c(Cl)cn3c(CN(CCC4CC4)CC(F)(F)F)c(C(F)(F)F)nc23)c(C)c1 , please look it up.
OUT: 6.3

IN: Lab note: need Ki with Corticotropin-releasing factor receptor 1 (Homo sapiens, UniProt P34998) for entry CCN(CCC1CC1)Cc1c(C(F)(F)F)nc2n(-c3c(C)cc(C)cc3C)c(Cl)cn12 , please look it up.
OUT: 13

IN: Lab note: need Ki with Corticotropin-releasing factor receptor 1 (Homo sapiens, UniProt P34998) for entry Cc1cc(C)c(-n2c(Cl)cn3c(CN(C)CCc4ccncc4)c(C(F)(F)F)nc23)c(C)c1 , please look it up.
OUT: 7600

IN: Lab note: need Ki with Corticotropin-releasing factor receptor 1 (Homo sapiens, UniProt P34998) for entry Cc1cc(C)c(-n2c(Cl)cn3c(CN(C)CCc4ccccc4)c(C(F)(F)F)nc23)c(C)c1 , please look it up.
OUT: 150

IN: Lab note: need Ki with Corticotropin-releasing factor receptor 1 (Homo sapiens, UniProt P34998) for entry CCCN(CC1CC1)C(=O)c1c(C)nc2n(-c3c(C)cc(C)cc3C)c(Cl)cn12 , please look it up.
OUT: 61

IN: Lab note: need Ki with Corticotropin-releasing factor receptor 1 (Homo sapiens, UniProt P34998) for entry CCCN(Cc1ccc(Cl)cc1)Cc1c(C(F)(F)F)nc2n(-c3c(C)cc(C)cc3C)c(Cl)cn12 , please look it up.
OUT: 28

IN: Lab note: need Ki with Corticotropin-releasing factor receptor 1 (Homo sapiens, UniProt P34998) for entry Cc1cc(C)c(-n2c(Cl)cn3c(CN4CCCCC4)c(C(F)(F)F)nc23)c(C)c1 , please look it up.
OUT: 1200

IN: Lab note: need Ki with Corticotropin-releasing factor receptor 1 (Homo sapiens, UniProt P34998) for entry CCN(Cc1c(C(F)(F)F)nc2n(-c3c(C)cc(C)cc3C)c(Cl)cn12)CC1CC1 , please look it up.
OUT: 9

IN: Lab note: need Ki with Corticotropin-releasing factor receptor 1 (Homo sapiens, UniProt P34998) for entry Cc1cc(C)c(-n2c(Cl)cn3c(CN(CC4CC4)CC(F)(F)F)c(C(F)(F)F)nc23)c(C)c1 , please look it up.
OUT: 5.2

IN: Lab note: need Ki with Corticotropin-releasing factor receptor 1 (Homo sapiens, UniProt P34998) for entry Cc1cc(C)c(-n2c(Cl)cn3c(CN4CCSCC4)c(C(F)(F)F)nc23)c(C)c1 , please look it up.
OUT: 920

IN: Lab note: need Ki with Corticotropin-releasing factor receptor 1 (Homo sapiens, UniProt P34998) for entry CCCCN(CC)Cc1c(C(F)(F)F)nc2n(-c3c(C)cc(C)cc3C)c(Cl)cn12 , please look it up.
OUT: 78

IN: Lab note: need Ki with Corticotropin-releasing factor receptor 1 (Homo sapiens, UniProt P34998) for entry Cc1cc(C)c(-n2c(Cl)cn3c(CN(Cc4ccc(F)cc4)CC(F)(F)F)c(C(F)(F)F)nc23)c(C)c1 , please look it up.
OUT: 160

IN: Lab note: need Ki with Corticotropin-releasing factor receptor 1 (Homo sapiens, UniProt P34998) for entry CCCN(CCC1CC1)Cc1c(C(F)(F)F)nc2n(-c3c(C)cc(C)cc3C)c(Cl)cn12 , please look it up.
OUT: 53

IN: Lab note: need Ki with Corticotropin-releasing factor receptor 1 (Homo sapiens, UniProt P34998) for entry C=C(C)CN(CC)Cc1c(C(F)(F)F)nc2n(-c3c(C)cc(C)cc3C)c(Cl)cn12 , please look it up.
OUT: 67

----------
System: Corticotropin-releasing factor receptor 1 (Homo sapiens) | Read-out: pKi
To interpret pKi, take it as minus log10 of a concentration measured in moles per litre.

IN: Lab note: need pKi with Corticotropin-releasing factor receptor 1 (Homo sapiens) for entry Cc1cc(C)c(-n2c(Cl)cn3c(CN(C)Cc4ccccc4)c(C(F)(F)F)nc23)c(C)c1 , please look it up.
OUT: 6.80

IN: Lab note: need pKi with Corticotropin-releasing factor receptor 1 (Homo sapiens) for entry Cc1cc(C)c(-n2c(Cl)cn3c(CN(CCC(F)(F)F)CC4CC4)c(C(F)(F)F)nc23)c(C)c1 , please look it up.
OUT: 7.80

IN: Lab note: need pKi with Corticotropin-releasing factor receptor 1 (Homo sapiens) for entry CCCN(Cc1ccc([N+](=O)[O-])cc1)Cc1c(C(F)(F)F)nc2n(-c3c(C)cc(C)cc3C)c(Cl)cn12 , please look it up.
OUT: 6.82

IN: Lab note: need pKi with Corticotropin-releasing factor receptor 1 (Homo sapiens) for entry Cc1cc(C)c(-n2c(Cl)cn3c(CN4CCCC4Cc4ccccc4)c(C(F)(F)F)nc23)c(C)c1 (configuration not stated) , please look it up.
OUT: 6.72

IN: Lab note: need pKi with Corticotropin-releasing factor receptor 1 (Homo sapiens) for entry Cc1cc(C)c(-n2c(Cl)cn3c(CN4CCCC(C)C4)c(C(F)(F)F)nc23)c(C)c1 (configuration not stated) , please look it up.
OUT: 5.24

IN: Lab note: need pKi with Corticotropin-releasing factor receptor 1 (Homo sapiens) for entry CCCN(Cc1ccc(F)cc1)Cc1c(C(F)(F)F)nc2n(-c3c(C)cc(C)cc3C)c(Cl)cn12 , please look it up.
OUT: 6.46

IN: Lab note: need pKi with Corticotropin-releasing factor receptor 1 (Homo sapiens) for entry CCCN(CC1CC1)C(=O)c1c(C(F)(F)F)nc2n(-c3c(C)cc(C)cc3C)c(Cl)cn12 , please look it up.
OUT: 7.48
